B1: Pistol ribozyme (parent)
chain: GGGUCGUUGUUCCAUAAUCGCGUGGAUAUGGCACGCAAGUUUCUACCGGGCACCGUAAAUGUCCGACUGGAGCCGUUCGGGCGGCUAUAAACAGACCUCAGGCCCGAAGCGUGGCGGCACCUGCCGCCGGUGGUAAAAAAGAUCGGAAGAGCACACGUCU

# Variants of: B1
# assay_details: aptazyme ON/OFF ratio, guanine; higher = stronger switching; co-transcriptional cleavage with and without guanine
measured_property: aptazyme ON/OFF ratio
# respond with the number and nothing more

Guide cases for aptazyme ON/OFF ratio, answers given:
1) G9C U10A C12G ... 1.22
2) U8C G9A C12U ... 1.38
3) U8A U10C U11C C12U C13A ... 1.05

Lookup: Query: aptazyme ON/OFF ratio; subject: U7C U8A G9U U10C U11A C12A C13A
Found: 1.08

Lookup: Entry to check: U7G U8C C12G
Found: 1.12
